Biological target: ZFP91 (UniProt Q96JP5)
Sequence (Q96JP5 whole entry, looked up): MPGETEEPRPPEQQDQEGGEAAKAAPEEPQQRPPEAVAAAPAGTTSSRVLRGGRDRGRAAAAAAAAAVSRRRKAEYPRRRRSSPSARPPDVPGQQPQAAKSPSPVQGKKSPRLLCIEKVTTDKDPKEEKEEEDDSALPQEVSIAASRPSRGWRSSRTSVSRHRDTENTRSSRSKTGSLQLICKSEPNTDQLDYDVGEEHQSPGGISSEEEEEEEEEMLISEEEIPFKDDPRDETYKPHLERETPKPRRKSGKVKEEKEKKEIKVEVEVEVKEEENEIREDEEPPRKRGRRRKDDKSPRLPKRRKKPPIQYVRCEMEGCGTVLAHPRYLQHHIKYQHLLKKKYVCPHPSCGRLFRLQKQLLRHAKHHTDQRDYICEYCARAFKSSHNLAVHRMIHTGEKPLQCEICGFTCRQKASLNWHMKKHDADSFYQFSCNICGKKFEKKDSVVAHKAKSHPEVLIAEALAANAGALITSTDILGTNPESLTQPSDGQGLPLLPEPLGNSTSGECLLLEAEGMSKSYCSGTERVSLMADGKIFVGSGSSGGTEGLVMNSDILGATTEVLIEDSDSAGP
Experiment: log2 fold change, soluble protein after heating vs DMSO (PISA); higher = thermal stabilisation; K562 cells, 10 uM, 30 min; active = over 0.2 and 3.5 SD of the protein, either way, in both replicates (recomputed)
Of roughly 7,900 targets only a part is listed; those with a hit were picked by preference. About 0.6% of all pairs of compound and target were hits.
measure: log2 fold change

| molecule | targetOrSystem | value |
| --- | --- | --- |
| Cc1ccc(NC(=O)c2cccc(N(C)C)c2)cc1NC(=O)c1ccc(O)cc1 | ZFP91 (UniProt Q96JP5) | 0.036 |
| NC(=O)c1ccc2nc(-c3ccc(Oc4ccc(Cl)cc4)cc3)[nH]c2c1 | ZFP91 (UniProt Q96JP5) | 0.017 |
| CC(C)(C)Cn1c(N)nc2ccc(-c3[nH]c(C(C)(C)C)nc3-c3ccc(F)cc3)nc21 [ralimetinib] | ZFP91 (UniProt Q96JP5) | -0.033 |
| Cc1cc(Nc2cc(CN3CCOCC3)c3nc(C)c(Cc4ccc(Cl)cc4F)n3n2)n[nH]1 [gandotinib] | ZFP91 (UniProt Q96JP5) | 0.214 |

---

Target: YIPF6 (UniProt Q96EC8)
Sequence (Q96EC8 whole entry, looked up): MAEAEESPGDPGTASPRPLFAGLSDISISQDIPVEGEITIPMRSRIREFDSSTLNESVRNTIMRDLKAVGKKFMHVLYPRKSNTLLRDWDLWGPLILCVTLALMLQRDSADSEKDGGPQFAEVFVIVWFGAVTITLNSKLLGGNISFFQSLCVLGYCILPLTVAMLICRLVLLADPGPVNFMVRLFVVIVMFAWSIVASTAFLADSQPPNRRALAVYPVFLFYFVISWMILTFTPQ
Assay: log2 fold change, soluble protein after heating vs DMSO (PISA); higher = thermal stabilisation; K562 cells, 10 uM, 30 min; active = over 0.2 and 3.5 SD of the protein, either way, in both replicates (recomputed)
The full data set covers some 7,900 targets. This sample favours those with a hit. About 0.6% of all pairs of compound and target were hits.
# label = T if log2 fold change >= -0.04 else F

| molecule | qualitativeLabel |
| --- | --- |
| c1cn2cc(-c3ccc4cn[nH]c4c3)nc(Nc3ccc(N4CCOCC4)cc3)c2n1 [entospletinib] | F |
| CCN(CC)Cc1ccc2cc(COC(=O)Nc3ccc(C(=O)NO)cc3)ccc2c1 [givinostat] | T |
| CN1CCN(c2nc(C3=C(c4c[nH]c5ccccc45)C(=O)NC3=O)c3ccccc3n2)CC1 [sotrastaurin] | F |
| Cn1cc(-c2ccc3c(c2)CCN3C(=O)Cc2cccc(C(F)(F)F)c2)c2c(N)ncnc21 | T |
| Cn1cncc1[C@@](N)(c1ccc(Cl)cc1)c1ccc2c(c1)c(-c1cccc(Cl)c1)cc(=O)n2C [tipifarnib] | T |
| Cc1cccc(-c2[nH]c(C(C)(C)C)nc2-c2ccc3nccnc3c2)n1 | T |
| CCn1cc(-c2ccnc3[nH]c(-c4cccc(CN(C)C)c4)cc23)c(-c2ccc(NC(=O)N(C)C)cc2)n1 | T |

---

Molecular target: YBX1 (UniProt P67809)
Sequence (P67809 whole entry, looked up): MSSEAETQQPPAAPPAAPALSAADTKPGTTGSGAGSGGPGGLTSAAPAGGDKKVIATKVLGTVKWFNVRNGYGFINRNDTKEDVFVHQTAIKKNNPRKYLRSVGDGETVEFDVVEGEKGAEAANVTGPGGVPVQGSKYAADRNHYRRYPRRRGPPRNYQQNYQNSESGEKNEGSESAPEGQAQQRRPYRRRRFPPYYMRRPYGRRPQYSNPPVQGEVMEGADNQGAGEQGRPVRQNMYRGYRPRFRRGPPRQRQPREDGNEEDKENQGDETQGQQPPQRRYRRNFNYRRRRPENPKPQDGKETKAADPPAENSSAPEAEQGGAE
Assay: log2 fold change, soluble protein after heating vs DMSO (PISA); higher = thermal stabilisation; K562 cells, 10 uM, 30 min; active = over 0.2 and 3.5 SD of the protein, either way, in both replicates (recomputed)
Targets with a hit are over-represented here; the source holds about 7,900 in all. About 0.6% of all pairs of compound and target were hits.
# label = Met if log2 fold change >= -0.07 else Not met

| compound | qualitativeLabel |
| --- | --- |
| Fc1ccc(Cl)cc1-c1nc(Nc2ccncc2)c2nccnc2n1 | Not met |
| NC(=O)c1ccc2nc(-c3ccc(Oc4ccc(Cl)cc4)cc3)[nH]c2c1 | Met |
| CCN(CCCOc1ccc2c(Nc3cc(CC(=O)Nc4cccc(F)c4)[nH]n3)ncnc2c1)CCOP(=O)(O)O [barasertib] | Not met |
| O=C(CCCCCCNC(=O)c1cnc(N(c2ccccc2)c2ccccc2Cl)nc1)NO [citarinostat] | Not met |
| COc1cc(Nc2ncc3c(n2)-c2ccc(Cl)cc2C(c2c(F)cccc2OC)=NC3)ccc1C(=O)O [alisertib] | Met |
| COC(=O)N[C@@H](C)CNc1nccc(-c2cn(C(C)C)nc2-c2cc(Cl)cc(NS(C)(=O)=O)c2F)n1 [encorafenib] | Met |
| CN(C)CC(=O)Nc1ccc2[nH]c(=O)c3ccccc3c2c1 | Not met |
| CC(C)C[C@@H](C=O)NC(=O)[C@H](CC(C)C)NC(=O)[C@H](CC(C)C)NC(=O)OCc1ccccc1 | Met |

The values you see were collected from the supplement of paper PMC10849652.
